Would you mind telling me the reported Kp at 3 h of each entry?
assay: Ratio of drug level in brain to plasma in Wistar rat at 100 mg/kg, po afer 3 hrs; assay type: ADME, organism-based; parameters: dose 100 mg/kg, route oral; conditions: read-out: BPR
Returns: the value as a bare number; no unit string appended.

stdin: Fill in the blank: the reported Kp at 3 h of COc1cccc(OC)c1[C@@H]1C[C@H](F)C(=O)N1Cc1ccc(OC(F)(F)F)cc1 (racemic) is ____.
stdout: 3.1

stdin: Moving on to COc1cccc(F)c1[C@@H]1C[C@@H](O)C(=O)N1Cc1ccc2oc3ccccc3c2c1
stdout: 2.3

====

experiment: Intrinsic metabolic clearance in rat liver microsomes at 1 uM; assay type: ADME; conditions: read-out: CLH
recorded_metric: microsomal CLint at 1 µM

stdin: Fill in the blank: the reported microsomal CLint at 1 µM of COc1cccc(F)c1[C@@H]1C[C@@H](O)C(=O)N1Cc1ccc2oc3ccccc3c2c1 is ____.
stdout: > 1250 µL/min/mg

====

test system: MDR1; experiment: Passive apparent permeability from apical to basolateral side in MDCK cells expressing human MDR1; assay type: ADME, cell-based, Canis lupus familiaris; conditions: dog
recorded_metric: Papp A→B (×10⁻⁶ cm/s)
API: value field is a number in ×10⁻⁶ cm/s; no unit string.

stdin: Fill in the blank: the reported Papp A→B of COc1cccc(F)c1[C@@H]1C[C@@H](O)C(=O)N1Cc1ccc2oc3ccccc3c2c1 is ____.
stdout: 12.5

====

target: Cytochrome P450 3A4 (Homo sapiens, UniProt P08684); test: Inhibition of CYP3A4 (unknown origin); type: ADME
Sequence (P08684 whole entry): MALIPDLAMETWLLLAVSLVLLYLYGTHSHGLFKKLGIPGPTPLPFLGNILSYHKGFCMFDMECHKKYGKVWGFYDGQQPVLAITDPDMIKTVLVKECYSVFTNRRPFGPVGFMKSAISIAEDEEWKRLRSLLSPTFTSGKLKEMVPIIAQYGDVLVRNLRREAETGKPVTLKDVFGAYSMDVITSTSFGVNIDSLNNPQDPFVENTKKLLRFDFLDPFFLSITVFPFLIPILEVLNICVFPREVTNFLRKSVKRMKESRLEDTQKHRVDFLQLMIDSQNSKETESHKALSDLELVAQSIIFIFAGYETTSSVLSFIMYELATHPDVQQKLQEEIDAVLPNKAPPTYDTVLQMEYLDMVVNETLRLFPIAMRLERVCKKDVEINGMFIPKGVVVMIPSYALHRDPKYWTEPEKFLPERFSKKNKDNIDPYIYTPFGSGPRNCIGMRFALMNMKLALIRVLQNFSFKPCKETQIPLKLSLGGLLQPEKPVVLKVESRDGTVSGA
recorded_metric: IC50

stdin: Checklist item: IC50 tested on Cytochrome P450 3A4 (Homo sapiens, UniProt P08684), entry COc1cccc(F)c1[C@@H]1C[C@@H](O)C(=O)N1Cc1ccc2oc3ccccc3c2c1 , value?
stdout: > 50 µM

====

target: Cytochrome P450 2D6 (Homo sapiens)
Sequence (P10635 whole entry): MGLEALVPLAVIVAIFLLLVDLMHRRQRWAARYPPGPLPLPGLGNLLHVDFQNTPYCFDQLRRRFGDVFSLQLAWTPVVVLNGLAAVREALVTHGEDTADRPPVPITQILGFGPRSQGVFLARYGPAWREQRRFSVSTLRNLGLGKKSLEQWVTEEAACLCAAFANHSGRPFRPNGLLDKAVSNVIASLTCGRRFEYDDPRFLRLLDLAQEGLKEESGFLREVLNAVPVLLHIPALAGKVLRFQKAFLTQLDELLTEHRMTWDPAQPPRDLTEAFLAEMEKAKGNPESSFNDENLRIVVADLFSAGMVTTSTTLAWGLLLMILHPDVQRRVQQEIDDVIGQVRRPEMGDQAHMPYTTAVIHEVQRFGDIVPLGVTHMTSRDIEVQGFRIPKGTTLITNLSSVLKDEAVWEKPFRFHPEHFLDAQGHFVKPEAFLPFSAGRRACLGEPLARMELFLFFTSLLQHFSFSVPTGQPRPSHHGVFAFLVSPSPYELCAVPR
recorded_metric: IC50
Just so you know, I need the unit written after the number.

stdin: Fill in the blank: the reported IC50 of COc1cccc(F)c1[C@@H]1C[C@@H](O)C(=O)N1Cc1ccc2oc3ccccc3c2c1 is ____.
stdout: 47 µM

====

assay: Drug level in Wistar rat brain measured per gram of tissue at 100 mg/kg, po after 3 hrs; format: ADME, organism-based; parameters: dose 100 mg/kg, route oral; settings: read-out: Drug uptake
Would you mind telling me the reported concentration at 3 h of each entry?
API: value field is a number in ng/g; no unit string.

stdin: Fill in the blank: the reported concentration at 3 h of COc1cccc(OC)c1[C@@H]1C[C@H](F)C(=O)N1Cc1ccc(OC(F)(F)F)cc1 (racemic) is ____.
stdout: 270

stdin: Moving on to COc1cccc(F)c1[C@@H]1C[C@@H](O)C(=O)N1Cc1ccc2oc3ccccc3c2c1
stdout: 585

====

Would you mind telling me the reported IC50 of each entry?
target: Orexin/Hypocretin receptor type 1 (Homo sapiens, UniProt O43613); experiment: Antagonist activity at human orexin 1 receptor expressed in CHO cells assessed as inhibition of orexin-A-induced calcium mobilization by FLIPR assay
Sequence (O43613 whole entry, looked up): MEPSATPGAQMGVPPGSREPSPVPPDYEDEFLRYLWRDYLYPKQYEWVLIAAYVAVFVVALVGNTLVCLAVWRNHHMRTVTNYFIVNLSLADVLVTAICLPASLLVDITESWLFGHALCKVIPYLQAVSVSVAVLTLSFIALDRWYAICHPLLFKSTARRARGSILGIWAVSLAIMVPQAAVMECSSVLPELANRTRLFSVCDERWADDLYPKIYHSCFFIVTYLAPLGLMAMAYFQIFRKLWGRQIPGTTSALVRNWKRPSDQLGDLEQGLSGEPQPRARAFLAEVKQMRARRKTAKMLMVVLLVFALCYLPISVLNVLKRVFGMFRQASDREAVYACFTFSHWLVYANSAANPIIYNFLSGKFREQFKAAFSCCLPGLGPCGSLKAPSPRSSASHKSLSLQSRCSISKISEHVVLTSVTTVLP
API: value field is a number in µM; no unit string.

stdin: Checklist item: IC50 tested on Orexin/Hypocretin receptor type 1 (Homo sapiens, UniProt O43613), entry COc1cccc(OC)c1[C@@H]1C[C@H](N)C(=O)N1Cc1ccc(OC(F)(F)F)cc1 (racemic) , value?
stdout: 9.49

stdin: Moving on to COc1cccc(OC)c1[C@@H]1C[C@H](OC)C(=O)N1Cc1ccc(OC(F)(F)F)cc1 (racemic)
stdout: 0.168

stdin: Moving on to COc1cccc(OC)c1[C@@H]1C[C@@H](O)C(=O)N1Cc1ccc2oc3ccccc3c2c1 (racemic)
stdout: 0.004

stdin: Moving on to COc1cccc(OC)c1[C@@H]1C[C@H](Cl)C(=O)N1Cc1ccc2oc3ccccc3c2c1 (racemic)
stdout: 0.005

stdin: Moving on to COc1cccc(OC)c1[C@@H]1C[C@H](N(C)C)C(=O)N1Cc1ccc(OC(F)(F)F)cc1 (racemic)
stdout: 8.3

stdin: Moving on to CC[C@H]1C[C@@H](c2c(OC)cccc2OC)N(Cc2ccc(OC(F)(F)F)cc2)C1=O (racemic)
stdout: 3.61

stdin: Moving on to COc1cccc(OC)c1[C@@H]1C[C@H](Cl)C(=O)N1Cc1ccc(OC(F)(F)F)cc1 (racemic)
stdout: 0.041

stdin: Moving on to CN[C@@H]1C[C@@H](c2c(OC)cccc2OC)N(Cc2ccc(OC(F)(F)F)cc2)C1=O (racemic)
stdout: 5.81

stdin: Moving on to COc1cccc(OC)c1[C@@H]1C[C@@H](N)C(=O)N1Cc1ccc(OC(F)(F)F)cc1 (racemic)
stdout: 2.05

stdin: Moving on to COc1cccc(OC)c1[C@@H]1C[C@@H](Cl)C(=O)N1Cc1ccc(OC(F)(F)F)cc1 (racemic)
stdout: 0.563

stdin: Moving on to COc1cccc(OC)c1[C@@H]1C[C@@H](OC)C(=O)N1Cc1ccc(OC(F)(F)F)cc1 (racemic)
stdout: 6.94

====

assay: Intrinsic metabolic clearance in human liver microsomes at 1 uM; assay type: ADME; conditions: read-out: CLH
recorded_metric: microsomal CLint at 1 µM (µL/min/mg)
API: value field is a number in µL/min/mg; no unit string.

stdin: Fill in the blank: the reported microsomal CLint at 1 µM of COc1cccc(OC)c1[C@@H]1C[C@H](Cl)C(=O)N1Cc1ccc(OC(F)(F)F)cc1 (racemic) is ____.
stdout: 277

stdin: Moving on to COc1cccc(OC)c1C1CCC(=O)N1Cc1ccc2oc3ccccc3c2c1 (racemic)
stdout: 577

stdin: Moving on to COc1cccc(OC)c1C1CC(F)(F)C(=O)N1Cc1ccc(OC(F)(F)F)cc1 (racemic)
stdout: 232

stdin: Moving on to COc1cccc(OC)c1[C@@H]1C[C@H](F)C(=O)N1Cc1ccc2oc3ccccc3c2c1 (racemic)
stdout: 363

stdin: Moving on to COc1cccc(F)c1[C@@H]1C[C@@H](O)C(=O)N1Cc1ccc2oc3ccccc3c2c1
stdout: 102

stdin: Moving on to COc1cccc(OC)c1[C@@H]1C[C@@H](C)C(=O)N1Cc1ccc(OC(F)(F)F)cc1 (racemic)
stdout: 257

stdin: Moving on to COc1cccc(OC)c1[C@@H]1C[C@@H](O)C(=O)N1Cc1ccc2oc3ccccc3c2c1 (racemic)
stdout: 128

stdin: Moving on to COc1cccc(OC)c1[C@@H]1C[C@@H](O)C(=O)N1Cc1ccc(OC(F)(F)F)cc1 (racemic)
stdout: 142

stdin: Moving on to COc1cccc(F)c1C1C[C@@H](O)C(=O)N1Cc1ccc2oc3ccccc3c2c1 (mixture of isomers)
stdout: 96

stdin: Moving on to COc1cccc(OC)c1[C@@H]1C[C@H](F)C(=O)N1Cc1ccc(OC(F)(F)F)cc1 (racemic)
stdout: 233

stdin: Moving on to COc1cccc(F)c1[C@@H]1C[C@H](F)C(=O)N1Cc1ccc2oc3ccccc3c2c1 (racemic)
stdout: 349

====

target: Orexin/Hypocretin receptor type 1 (Homo sapiens, UniProt O43613); assay: Antagonist activity at human orexin 1 receptor expressed in CHO cells assessed as inhibition of orexin-A-induced calcium mobilization by FLIPR assay; assay type: functional, cell-based
pIC50: −log10 of the molar value.
recorded_metric: pIC50

stdin: Fill in the blank: the reported pIC50 of CN[C@H]1C[C@@H](c2c(OC)cccc2OC)N(Cc2ccc(OC(F)(F)F)cc2)C1=O (racemic) is ____.
stdout: < 5.00

stdin: Moving on to CCO[C@H]1C[C@@H](c2c(OC)cccc2OC)N(Cc2ccc(OC(F)(F)F)cc2)C1=O (racemic)
stdout: < 5.00

stdin: Moving on to COc1cccc(OC)c1[C@@H]1C[C@@H](N(C)C)C(=O)N1Cc1ccc(OC(F)(F)F)cc1 (racemic)
stdout: < 5.00
